target: IDO1 (Homo sapiens (Human)); test: IDO1 Cellular Assay in Hela Cells Stimulated with IFNγ; assay type: cell-based; details: Hela cells stimulated with IFNγ 100 ng/mL; read-out: IDO1 HELA Cell Assay, IC50
pIC50: −log10 of the molar value.
recordedEndpoint: pIC50

Recorded results for 3 compounds are shown here.
- compound: "CC(CO)(CO)NC(=O)CSc1nonc1/C(=N/O)Nc1ccc(F)c(Br)c1"
  pIC50: 7.20
- compound: "CC(=O)NCCSc1nonc1/C(=N/O)Nc1cc(Br)c(F)cc1F"
  pIC50: 6.81
- compound: "OCCCSc1nonc1/C(=N/O)Nc1ccc(F)c(Br)c1"
  pIC50: 7.40

(P) O/N=C(\Nc1ccc(F)c(Br)c1)c1nonc1SCC(O)c1ccccc1 (stereo not drawn)
(Q) N#CC12CC(CSc3nonc3/C(=N/O)Nc3ccc(F)c(Br)c3)(C1)C2
[ask] Of P and Q , whose reported pIC50 is numerically smaller? Answer by stating the label of the chosen item.
[reply] P
(P: 6.41, Q: 7.42)

(P) N#C/N=C(\N)NCCSc1nonc1/C(=N/O)Nc1ccc(F)c(Br)c1
(Q) O=C(CSc1nonc1/C(=N/O)Nc1ccc(F)c(Br)c1)NC[C@@H](O)CO
(R) CC#CCSc1nonc1C(=NO)Nc1ccc(F)c(Br)c1
[ask] Kindly order the items shown according to pIC50, from the highest value down. Write the labels in rank order as requested.
[reply] P, Q, R

(a) N=C(N)NCCSc1nonc1/C(=N/O)Nc1ccc(F)c(Br)c1
(b) O=C(CSc1nonc1/C(=N/O)Nc1ccc(F)c(Br)c1)N[C@H]1CCOC[C@H]1O
[ask] # returns the entry with the larger pIC50; inputs a and b Give the label under which the chosen entry appears.
[reply] a
(a: 7.03, b: 6.83)

* * *

Biological target: IDO1 (Homo sapiens (Human))
Test: IDO1 Cellular Assay in Hela Cells Stimulated with IFNγ
Format: cell-based
Details: Hela cells stimulated with IFNγ 100 ng/mL; read-out: IDO1 HELA Cell Assay, IC50
Procedure: IDO1 Cellular Assay in Hela Cells Stimulated with IFNγ Hela cells were cultured in complete Hela culture medium (90% EMEM, 10% heat-inactivated fetal bovine serum) and expanded to about 1×10^9 cells. […] Frozen Hela cells were thawed and transferred into Hela assay medium (99% complete Hela culture medium, 1% Pen/Strep) with 20 mL medium/vial of cells. […] The cells were then counted and adjusted to a density of 2×10^5 cells/ml in Hela assay medium. […]
recordedEndpoint: IC50 (nM)

Past entries and their recorded results:
- chemicalString: "NS(=O)(=O)NCCSc1nonc1/C(=N/O)Nc1ccc(F)c(Br)c1"
  IC50, nM: 72.4
- chemicalString: "NS(=O)(=O)NCCSc1nsnc1/C(=N/O)Nc1ccc(F)c(Br)c1"
  IC50, nM: 245

(A) CS(=O)(=O)NCCOc1nonc1/C(=N/O)Nc1ccc(F)c(Br)c1
(B) O=C(NCCSc1nonc1C(=NO)Nc1ccc(F)c(Br)c1)NCc1ccco1
[ask] Hello, I am sorting some records. Could you say if A or B has the smaller IC50 value? Kindly give the label for the entry you pick.
[reply] A

* * *

molecular target: IDO1 (Homo sapiens (Human), UniProt P14902); assay: IDO1 Enzyme Assay; settings: IDO1 Enzyme Assay, IC50, nM, HIS-tagged recombinant IDO1, 40 nM
Sequence (P14902 whole entry): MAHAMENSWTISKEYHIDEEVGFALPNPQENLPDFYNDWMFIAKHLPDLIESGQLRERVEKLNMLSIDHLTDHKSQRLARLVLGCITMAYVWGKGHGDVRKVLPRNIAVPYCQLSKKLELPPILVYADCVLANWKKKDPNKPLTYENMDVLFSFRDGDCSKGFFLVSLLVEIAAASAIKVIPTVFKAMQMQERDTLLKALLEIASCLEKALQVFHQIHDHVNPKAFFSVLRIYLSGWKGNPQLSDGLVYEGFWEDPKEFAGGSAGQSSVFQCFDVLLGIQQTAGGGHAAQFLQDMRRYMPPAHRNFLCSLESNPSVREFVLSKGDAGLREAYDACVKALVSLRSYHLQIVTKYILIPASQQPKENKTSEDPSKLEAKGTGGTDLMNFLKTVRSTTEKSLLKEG
recordedEndpoint: IC50 (nM)

// below: answered compounds
- compound: "CC(C)(O)C(O)CSc1nonc1/C(=N/O)Nc1ccc(F)c(Br)c1 (stereo not drawn) [Example 30]"
  IC50, nM: 85.3
- compound: "O=C(CSc1nonc1C(=NO)Nc1ccc(F)c(Br)c1)NCCF"
  IC50, nM: 34.9
- compound: "ON=C(Nc1ccc(F)c(Br)c1)c1nonc1SCCn1ccnc1"
  IC50, nM: 78.6

(A) Cn1ccnc1CSc1nonc1C(=NO)Nc1ccc(F)c(Br)c1
(B) OCC(O)CSc1nonc1/C(=N/O)Nc1ccc(F)c(Br)c1 (single isomer, unassigned) [Example 64]
(C) ON=C(Nc1ccc(F)c(Br)c1)c1nonc1SCCN1CCNCC1
[ask] # rank_down: sort by IC50, max first Output spec: labels arranged per the requested ranking.
[reply] C, A, B
(C: 161 nM, A: 85.4 nM, B: 49.1 nM)

* * *

target: IDO1 (Homo sapiens (Human), UniProt P14902); experiment: IDO1 Enzyme Assay; settings: read-out: IDO1 Enzyme Assay, IC50; HIS-tagged recombinant IDO1, 40 nM
recordedEndpoint: IC50 (nM)

# example entries with known answers
- compound: "O=C1CC[C@H](CSc2nonc2/C(=N/O)Nc2ccc(F)c(Br)c2)N1"
  targetDesc: "IDO1 (Homo sapiens (Human), UniProt P14902)"
  recordedEndpoint: "IC50"
  unitSpec: "nM"
  reportedResult: 22.8
- compound: "O/N=C(\\Nc1ccc(F)c(Br)c1)c1nonc1SCC(O)c1ccccc1 (stereo not shown)"
  targetDesc: "IDO1 (Homo sapiens (Human), UniProt P14902)"
  recordedEndpoint: "IC50"
  unitSpec: "nM"
  reportedResult: 503
- compound: "CCc1cccc(N/C(=N\\O)c2nonc2SCCNC(C)=O)c1"
  targetDesc: "IDO1 (Homo sapiens (Human), UniProt P14902)"
  recordedEndpoint: "IC50"
  unitSpec: "nM"
  reportedResult: 59.4
- compound: "CC(=O)N[C@H](CO)CSc1nonc1/C(=N/O)Nc1ccc(F)c(Br)c1"
  targetDesc: "IDO1 (Homo sapiens (Human), UniProt P14902)"
  recordedEndpoint: "IC50"
  unitSpec: "nM"
  reportedResult: 93.7

(1) NS(=O)(=O)c1ccc(CCSc2nonc2/C(=N/O)Nc2ccc(F)c(Br)c2)cc1
(2) OC[C@@H](O)CSc1nonc1/C(=N/O)Nc1ccc(F)c(C(F)(F)F)c1
[ask] Compare IC50: is it lower for 1 or for 2 ? Choose, then provide that item's label.
[reply] 2

* * *

target: IDO1 (Homo sapiens (Human), UniProt P14902); experiment: IDO1 Enzyme Assay; details: read-out: IDO1 Enzyme Assay, IC50; HIS-tagged recombinant IDO1, 40 nM
recordedEndpoint: IC50 (nM)

Observe how each entry below is paired with its result.
- compound: "CC(C)OC(=O)OCOP(=O)(O)CCSc1nonc1/C(=N/O)Nc1ccc(F)c(Br)c1"
  targetDesc: "IDO1 (Homo sapiens (Human), UniProt P14902)"
  unitSpec: "nM"
  IC50: 197
- compound: "CNP(=O)(CCSc1nonc1/C(=N/O)Nc1ccc(F)c(Br)c1)NC"
  targetDesc: "IDO1 (Homo sapiens (Human), UniProt P14902)"
  unitSpec: "nM"
  IC50: 48.5
- compound: "O=c1c(NCCSc2nonc2/C(=N/O)Nc2ccc(F)c(Br)c2)c(N2CCOCC2)c1=O"
  targetDesc: "IDO1 (Homo sapiens (Human), UniProt P14902)"
  unitSpec: "nM"
  IC50: 57.4
- compound: "NC(CCSc1nonc1/C(=N/O)Nc1ccc(F)c(Br)c1)C(=O)O (stereo not drawn)"
  targetDesc: "IDO1 (Homo sapiens (Human), UniProt P14902)"
  unitSpec: "nM"
  IC50: 29.4
- compound: "CC(C)(O)[C@H](O)CSc1nonc1C(=NO)Nc1ccc(F)c(C#N)c1"
  targetDesc: "IDO1 (Homo sapiens (Human), UniProt P14902)"
  unitSpec: "nM"
  IC50: 118

(A) CNC(=O)CSc1nonc1/C(=N/O)Nc1ccc(F)c(C#N)c1
(B) O=c1ccc(CSc2nonc2/C(=N/O)Nc2ccc(F)c(Br)c2)n[nH]1
(C) O=c1c(NCCSc2nonc2/C(=N/O)Nc2ccc(F)c(Br)c2)c(NCC(O)CO)c1=O (stereo not drawn)
(D) N[C@H](CO)CSc1nonc1/C(=N/O)Nc1ccc(F)c(Br)c1
(E) C[C@H](O)CNC(=O)CSc1nonc1/C(=N/O)Nc1ccc(F)c(Br)c1 [Example 203]
[ask] hey, can you rank those compounds up there by IC50? biggest number first please Arrange the labels as the request states and list them.
[reply] A, D, B, C, E
(A: 88 nM, D: 51.9 nM, B: 34.9 nM, C: 23 nM, E: 14.5 nM)

* * *

Target: IDO1 (Homo sapiens (Human), UniProt P14902)
Assay: IDO1 Cellular Assay in Hela Cells Stimulated with IFNγ
Type: cell-based
Details: Hela cells stimulated with IFNγ 100 ng/mL; read-out: IDO1 HELA Cell Assay, IC50
Protocol: IDO1 Cellular Assay in Hela Cells Stimulated with IFNγ Hela cells were cultured in complete Hela culture medium (90% EMEM, 10% heat-inactivated fetal bovine serum) and expanded to about 1×10^9 cells. […] Frozen Hela cells were thawed and transferred into Hela assay medium (99% complete Hela culture medium, 1% Pen/Strep) with 20 mL medium/vial of cells. […] The cells were then counted and adjusted to a density of 2×10^5 cells/ml in Hela assay medium. […]
recordedEndpoint: IC50 (nM)

Below are worked cases with known answers.
- compound: "CCNC(=O)CSc1nonc1C(=NO)Nc1ccc(F)c(Br)c1"
  reportedResult: 54.3
- compound: "O=S1(=O)NC[C@H](CSc2nonc2/C(=N/O)Nc2ccc(F)c(Cl)c2)N1"
  reportedResult: 13.1
- compound: "O=c1[nH]nc(CCSc2nonc2/C(=N/O)Nc2ccc(F)c(Br)c2)o1"
  reportedResult: 112
- compound: "CS(=O)(=O)NCCSc1nonc1/C(=N/O)Nc1ccc(F)c(C#N)c1"
  reportedResult: 120
- compound: "ON=C(Nc1ccc(F)c(Br)c1)c1nonc1SCCn1cncn1"
  reportedResult: 41

(P) OC[C@H](O)CSc1nonc1/C(=N/O)Nc1ccc(F)c(C(F)(F)F)c1
(Q) N#Cc1cc(N/C(=N\O)c2nonc2SC[C@H](O)CO)ccc1F
(R) O/N=C(\Nc1ccc(F)c(Br)c1)c1nonc1SCCN1CCOCC1
[ask] Rank ascending by IC50. In your reply, arrange the labels in the requested order.
[reply] R, P, Q

(a) CC(C)(O)CNC(=O)CSc1nonc1/C(=N/O)Nc1ccc(F)c(Br)c1
(b) CN(C)CCSc1nsnc1/C(=N/O)Nc1ccc(F)c(Br)c1
[ask] Compare reported IC50 values for a and b . Which is lower? Field: selected label. Fill in the label of the entry you choose.
[reply] a

Taken from patent US10538497B2.
